Each entry below carries its recorded IC50.
# system-name: PIP4K2A (Homo sapiens, UniProt P48426)
# Sequence (P48426 whole entry, species assumed): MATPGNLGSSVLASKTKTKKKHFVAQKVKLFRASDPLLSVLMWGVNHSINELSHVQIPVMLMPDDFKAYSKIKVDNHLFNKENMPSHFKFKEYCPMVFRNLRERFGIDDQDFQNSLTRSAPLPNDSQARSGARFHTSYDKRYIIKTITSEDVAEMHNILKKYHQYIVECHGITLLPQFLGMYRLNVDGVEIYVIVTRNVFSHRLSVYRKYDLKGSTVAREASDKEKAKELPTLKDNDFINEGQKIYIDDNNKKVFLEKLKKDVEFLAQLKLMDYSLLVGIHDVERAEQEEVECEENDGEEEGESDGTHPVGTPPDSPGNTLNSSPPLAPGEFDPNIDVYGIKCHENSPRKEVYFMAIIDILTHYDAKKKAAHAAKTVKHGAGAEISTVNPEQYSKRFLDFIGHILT

Solved cases below.
entry-smiles: COc1nc(Nc2cnc3c(c2)N(C(=O)OCCN(C)C)CCO3)ncc1-c1ccc(N2CCCC2=O)cc1
metric-name: IC50
result-value: 1 to 10 nM

entry-smiles: CCN(CC)CCN1CCOc2ncc(Nc3ncc(-c4ccc(N5CCCC5=O)cc4)c(OC)n3)cc21
metric-name: IC50
result-value: 100 to 1000 nM

entry-smiles: CN(c1nc(Nc2cnc3c(c2)N2C(=O)CC[C@H]2CO3)ncc1-c1ccc(N2CCCC2=O)cc1)[C@H]1C[C@H](O)C1
metric-name: IC50
result-value: 1 to 10 nM

entry-smiles: COc1nc(Nc2cncc(N3CC[C@@H](N(C)C)C3)c2)ncc1-c1ccc(N2CCCC2=O)cc1
metric-name: IC50
result-value: 100 to 1000 nM

Would you kindly share the measured IC50 for CN(c1nc(Nc2cnc3c(c2)N2C(=O)CC[C@H]2CO3)ncc1-c1ccc(N2CCCC2=O)cc1)[C@@H]1CCOC1 ?
1 to 10 nM

Would you kindly share the measured IC50 for Cc1cnnn1-c1ccc(-c2cnc(Nc3cnc4c(c3)N(C(=O)OCCN(C)C)CCO4)nc2)cc1 ?
1 to 10 nM

Would you kindly share the measured IC50 for CN(c1nc(Nc2cnc3c(c2)OCCO3)ncc1-c1ccc(N2CCCC2=O)cc1)[C@H]1C[C@H](O)C1 ?
1 to 10 nM

Would you kindly share the measured IC50 for O=C1CCCN1c1ccc(-c2cnc(Nc3cnc4c(c3)N3C(=O)CC[C@H]3CO4)nc2CC2(O)COC2)cc1F ?
10 to 100 nM

Would you kindly share the measured IC50 for CCN(CC)CCOC(=O)N1CCOc2ncc(Nc3ncc(-c4ccc(N5CCCC5=O)cc4)cn3)cc21 ?
10 to 100 nM

Would you kindly share the measured IC50 for COc1nc(Nc2cncc(N3CC[C@@H](N(C)C)C3)c2)ncc1-c1ccc(-c2nnccc2C)cc1 ?
10 to 100 nM

Would you kindly share the measured IC50 for COc1nc(Nc2cncc(N(C)CCC(=O)N3CCNCC3)c2)ncc1-c1ccc(N2CCCC2=O)cc1 ?
10 to 100 nM

Would you kindly share the measured IC50 for COc1nc(Nc2cncc(OCCN3CCC(F)(F)C3)c2)ncc1-c1ccc(N2CCCC2=O)cc1 ?
10 to 100 nM

Would you kindly share the measured IC50 for CN(C)C(=O)c1ccc(-c2cnc(Nc3cnc4c(c3)OCCO4)nc2N(C)[C@H]2C[C@@H](O)C2)cc1 ?
10 to 100 nM
